src = patent US20220177587A1

Target: huPD-L1 (Homo sapiens, UniProt Q9NZQ7)
Sequence (Q9NZQ7 19-290): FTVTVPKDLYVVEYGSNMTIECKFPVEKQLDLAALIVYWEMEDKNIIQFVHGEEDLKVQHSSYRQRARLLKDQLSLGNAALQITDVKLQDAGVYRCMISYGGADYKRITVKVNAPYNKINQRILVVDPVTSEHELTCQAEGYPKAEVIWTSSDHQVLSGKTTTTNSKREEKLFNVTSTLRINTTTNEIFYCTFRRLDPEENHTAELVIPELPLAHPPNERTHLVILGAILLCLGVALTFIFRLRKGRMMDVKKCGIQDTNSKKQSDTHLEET
Assay: Flow binding to CHO cells stably expressing PD-L1
Design: huCTLA4 and huPD-L1, full-length mammalian surface expression constructs were generated; expressed in transfected cells; host or cells: CHO cells, lentiviral transduction, sorted to >98% purity
Settings: Table E10; 33.3 nM; relative to CD80 WT IgV-Fc

molecule | PD-L1 Fold change to WT CD80
E35D/M43I/D46E/A71G/L85M (protein) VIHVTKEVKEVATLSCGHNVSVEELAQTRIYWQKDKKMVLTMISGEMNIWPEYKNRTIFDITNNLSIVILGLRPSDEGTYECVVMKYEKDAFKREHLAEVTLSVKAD | 101.5
E35D/D46E (protein) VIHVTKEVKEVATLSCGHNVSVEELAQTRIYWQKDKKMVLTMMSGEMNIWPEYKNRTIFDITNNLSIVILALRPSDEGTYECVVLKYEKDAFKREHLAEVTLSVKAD | 53.4
V22A/E35D/M47L/A71G (protein) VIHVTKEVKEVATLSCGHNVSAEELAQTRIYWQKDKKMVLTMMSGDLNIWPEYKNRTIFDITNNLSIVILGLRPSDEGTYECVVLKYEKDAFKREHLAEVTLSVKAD | 116.2
H18Y/E35D (protein) VIHVTKEVKEVATLSCGYNVSVEELAQTRIYWQKDKKMVLTMMSGDMNIWPEYKNRTIFDITNNLSIVILALRPSDEGTYECVVLKYEKDAFKREHLAEVTLSVKAD | 50.2
D46V/M47I/A71G (protein) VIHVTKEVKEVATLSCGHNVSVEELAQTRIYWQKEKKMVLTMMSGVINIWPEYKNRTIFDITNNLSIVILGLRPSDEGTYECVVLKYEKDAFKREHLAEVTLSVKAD | 104.2
Q27L/E35D/M47V/I61V/L85M (protein) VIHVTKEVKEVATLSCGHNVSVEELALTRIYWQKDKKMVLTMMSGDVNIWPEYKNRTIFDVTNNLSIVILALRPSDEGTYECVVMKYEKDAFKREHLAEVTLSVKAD | 38.5
H18Y/E35D/M47L/A71G/A91S (protein) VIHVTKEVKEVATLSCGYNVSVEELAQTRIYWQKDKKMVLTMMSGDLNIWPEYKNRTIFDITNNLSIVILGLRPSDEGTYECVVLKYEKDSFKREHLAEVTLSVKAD | 107.9
E35D/D46E/A91G (protein) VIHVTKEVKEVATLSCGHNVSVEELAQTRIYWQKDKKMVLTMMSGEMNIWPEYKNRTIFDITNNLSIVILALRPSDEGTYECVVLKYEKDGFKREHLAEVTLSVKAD | 40.1
E35D/D46E/L85M (protein) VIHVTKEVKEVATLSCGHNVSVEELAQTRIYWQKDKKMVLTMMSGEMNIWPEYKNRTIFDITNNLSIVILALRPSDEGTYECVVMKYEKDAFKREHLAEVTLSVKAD | 41.0
